- tgt: MDMX (Homo sapiens)
- Sequence (O15151 1-125): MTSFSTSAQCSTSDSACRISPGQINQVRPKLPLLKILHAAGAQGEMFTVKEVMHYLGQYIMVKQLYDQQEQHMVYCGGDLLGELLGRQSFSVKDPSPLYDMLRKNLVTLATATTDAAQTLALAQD
- assay.remarks: Competitive fluorescence polarization assay for MDMX
- Format: binding
- measurement.context: competitive FP assay, read-out: Ki (MDMX)
Where a SMILES comes first, the peptide text is derived from it. Bridges are numbered along the chain shown (N, C = ends). [ ]: non-standard residue; d: D form. R8 = C=CCCCCCC[C@@](C)(N)C(=O)O; Cba = N[C@@H](CC1CCC1)C(=O)O; S5 = C=CCCC[C@](C)(N)C(=O)O; Nle = CCCC[C@H](N)C(=O)O; Ac3c = NC1(C(=O)O)CC1
readout: Ki

Reference set (3 entries):
[[record]]
molecule = "CSCC[C@H](NC(=O)[C@H](C)NC(=O)[C@H](C)NC(=O)[C@]1(C)CCCC=CCCCCCC[C@@](C)(NC(=O)[C@H](Cc2ccccc2)NC(C)=O)C(=O)N[C@@H](C)C(=O)N[C@@H](Cc2ccc(O)cc2)C(=O)N[C@@H](Cc2c[nH]c3ccccc23)C(=O)N[C@@H](CCC(=O)O)C(=O)NC2(CC2)C(=O)N[C@@H](CC(C)C)C(=O)N1)C(N)=O [compound 16] (Ac-F[R8]AYWE[Ac3c]L[S5]AAM-NH2; staple 2-9)"
readout = "Ki"
result = "10 to 100 nM"

[[record]]
molecule = "CCCC[C@H](NC(=O)[C@H](C)NC(=O)[C@H](C)NC(=O)[C@]1(C)CCCC=CCCCCCC[C@@](C)(NC(=O)[C@H](Cc2ccccc2)NC(=O)[C@@H](NC(=O)[C@H](CC(C)C)NC(C)=O)[C@@H](C)O)C(=O)N[C@@H](C)C(=O)N[C@@H](Cc2ccc(O)cc2)C(=O)N[C@@H](Cc2c[nH]c3ccccc23)C(=O)N[C@@H](C)C(=O)N[C@@H](CCC(N)=O)C(=O)N[C@@H](CC2CCC2)C(=O)N1)C(=O)N[C@@H](C)C(=O)N[C@@H](C)C(N)=O [compound 322] (Ac-LTF[R8]AYWAQ[Cba][S5]AA[Nle]AA-NH2; staple 4-11)"
readout = "Ki"
result = "100 to 1000 nM"

[[record]]
molecule = "CC(=O)N[C@@H](CC(C)C)C(=O)N[C@H](C(=O)N[C@@H](Cc1ccccc1)C(=O)N[C@]1(C)CCCCCCC=CCCC[C@@](C)(C(=O)N[C@@H](C)C(=O)N[C@@H](C)C(=O)N[C@@H](C)C(=O)N[C@H](C)C(N)=O)NC(=O)[C@H](CC(C)C)NC(=O)[C@H](CCC(N)=O)NC(=O)[C@H](C)NC(=O)[C@H](Cc2c[nH]c3ccccc23)NC(=O)[C@H](Cc2ccc(O)cc2)NC(=O)[C@H](C)NC1=O)[C@@H](C)O (single isomer, unassigned)"
readout = "Ki"
result = "< 10 nM"


Now let's try a different one.
Which Ki is listed for CC[C@H](C)[C@H](NC(C)=O)C(=O)N[C@H](C(=O)N[C@@H](Cc1ccccc1)C(=O)N[C@]1(C)CCCCCCC=CCCC[C@@](C)(C(=O)N[C@@H](C)C(=O)N[C@@H](CCC(=O)O)C(=O)N[C@@H](Cc2ccccc2)C(=O)N[C@@H](C)C(N)=O)NC(=O)[C@H](CC(C)C)NC(=O)[C@H](CCC(N)=O)NC(=O)[C@H](C)NC(=O)[C@H](Cc2c[nH]c3ccccc23)NC(=O)[C@H](Cc2c[nH]cn2)NC(=O)[C@H](Cc2ccccc2)NC1=O)[C@@H](C)O [compound 186] (Ac-ITF[R8]FHWAQL[S5]AEFA-NH2; staple 4-11) ?
10 to 100 nM
